Assay Procedure: M. tuberculosis growth inhibition, HTS (AID 449762);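 note: bacterial growth assessed after seven days of incubation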
Measurement Setup: M. tuberculosis H37Rv growth inhibition, 7H9 media; at 25 µM; stronger effect = higher value
Hit rate of the full screen: of about 330,000 compounds, about 1,900 (0.58%) were called active. Not shown: some 4% with an inconclusive outcome. A selection follows. Entries with a potency or affinity are not part of this list.
Recorded measurements of inhibition, one per entry

| Compound | inhibition |
| --- | --- |
| COC(=O)CCNC(=O)c1ccc2nc(Cc3ccc(OC)c(OC)c3)oc2c1 | -1.6% (inactive) |
| O=C(c1ccc(Cl)cc1)N1N=CCC1(O)c1ccc(Cl)cc1 (stereo not drawn) | 2.13% (inactive) |
| O=C(CSc1cccc[n+]1[O-])Nc1cccc(Oc2ccccc2)c1 | 2.29% (inactive) |
| Cc1ccc(Oc2nc(-c3cccnc3)nc3ccccc23)c([N+](=O)[O-])n1 | 3.26% (inactive) |

For this compound ( COc1ccccc1OCC(=O)Nc1ccc(S(=O)(=O)N2CCOCC2)cc1 ), measured inhibition is -3.94% (inactive)

For this compound ( COc1ncnc2c1sc1nc(-c3ccccc3)c3c(c12)CCCC3 ), measured inhibition is 2.95% (inactive)

For this compound ( CCC1=NC(c2ccc(OC)cc2)N(O)C1(C)C (stereo not drawn) ), measured inhibition is -1.62% (inactive)

For this compound ( Cc1cc(C(=O)NNC(=O)c2cccc(C(F)(F)F)c2)no1 ), measured inhibition is -7.27% (inactive)

For this compound ( N#Cc1ccc(OCC(O)CN2CCN(CC(O)COc3ccc(C#N)cc3)CC2)cc1 (stereo not drawn) ), measured inhibition is -5.84% (inactive)

For this compound ( COCCCNC(=O)CC(NCCCOC)C(=O)O (stereo not drawn) ), measured inhibition is 0.77% (inactive)

For this compound ( O=C1Nc2cc(C(=O)NCCCN3CCOCC3)ccc2S/C1=C/c1ccccc1F ), measured inhibition is 16.4% (inactive)

For this compound ( CCN(CC)CCNc1ncnc2c1sc1nc(N3CCOCC3)c3c(c12)CCCC3 ), measured inhibition is 13.5% (inactive)

For this compound ( c1ccc(Oc2nc(-c3cccnc3)nc3ccccc23)cc1 ), measured inhibition is 13.2% (inactive)
